target: AMPK; assay: AMPK activation, enzyme-linked immunosorbent assay; type: biochemical; conditions: compounds of Table 5 (Table 10)
pEC50: −log10 of the molar value.
Below, each of the compounds is paired with its reported pEC50 value.

CC(C)(C)c1ccc(CN2CCC(Oc3ccc(C(=O)NC4CCN(c5ccccc5)CC4)cc3F)CC2)cc1	> 6.00
O=C(NC1CCN(c2ccccc2)CC1)c1ccc(OC2CCN(c3ccc(C(F)(F)F)cc3)CC2)c(F)c1	< 4.00
N#Cc1ccc(CN2CCC(Oc3ccc(C(=O)NC4CCN(Cc5ccccc5)CC4)cc3Cl)CC2)cc1	> 6.00
Cn1cncc1CN1CCC(Oc2ccc(C(=O)NC3CCN(Cc4ccccc4)CC3)cc2Cl)CC1	4.00 to 4.30
O=C(NC1CCN(Cc2ccccc2)CC1)c1ccc(OC2CCN(Cc3cccnc3)CC2)c(F)c1	5.00 to 6.00

pEC50 for "N#Cc1ccc(CN2CCC(Oc3c(Cl)cc(C(=O)NC4CCN(Cc5ccccc5)CC4)cc3Cl)CC2)cc1" is > 6.00

Recorded pEC50 (compound "O=C(NC1CCN(Cc2ccccn2)CC1)c1ccc(OC2CCN(c3ccc(C(F)(F)F)cc3)CC2)c(F)c1" ): > 6.00

Item: "N#Cc1ccc(CN2CCC(NC(=O)c3ccc(OC4CCN(c5ccc(C(F)(F)F)cc5)CC4)c(F)c3)CC2)cc1" | pEC50: > 6.00
